Tested on: DU145
assay name: Cancer cell proliferation assay, DU145
Type: cell-based
assay conditions: Homo sapiens, DU-145; Table 1a; prostate cancer; read-out: IC50 (μM) DU145
Assignment: determine reported IC50 for the given compounds.
Answers are plain numbers, in µM.

Solved entries (count: 5):
compound	assay target	IC50 / µM
C=C1C(=O)[C@@]23C(CC[C@H]1[C@H]2O)[C@@]12CO[C@]3(O)[C@@H](O)C1C(C)(C)Cc1sc(NC3CCCCC3)nc12 (some centres unmarked)	DU145	1.82
C=C1C(=O)[C@@]23C(CC[C@H]1[C@H]2O)[C@@]12CO[C@]3(O)[C@@H](O)C1C(C)(C)Cc1sc(N3CCCCCC3)nc12 (some centres unmarked)	DU145	4.74
C=C1C(=O)[C@]23[C@H](O)[C@H]1CC[C@H]2[C@@]12COC3(O)[C@@H](O)[C@@H]1C(C)(C)CC[C@@H]2O	DU145	14.2
C=C1C(=O)[C@]23[C@H](O)[C@H]1CC[C@H]2[C@@]12CO[C@]3(O)[C@@H](O)[C@@H]1C(C)(C)Cc1sc(NCCCC)nc12	DU145	4.22
C=C1C(=O)[C@@]23C(CCC1[C@H]2O)[C@@]12COC3(O)[C@@H](O)C1C(C)(C)Cc1sc(NCCN3CCCCC3)nc12 (stereo in doubt)	DU145	1.16

Your task in this section: give IC50 for each listed record.
1. C=C1C(=O)[C@]23[C@H](O)[C@H]1CC[C@H]2[C@@]12CO[C@]3(O)[C@@H](O)[C@@H]1C(C)(C)Cc1sc(NC(C)C)nc12
2. C=C1C(=O)[C@]23[C@H](O)[C@H]1CC[C@H]2[C@@]12CO[C@]3(O)[C@@H](O)[C@@H]1C(C)(C)Cc1sc(N)nc12

5.31
3.46

Output IC50 of `C=CCNc1nc2c(s1)CC(C)(C)[C@H]1[C@H](O)[C@@]3(O)OC[C@@]21[C@@H]1CC[C@H]2C(=C)C(=O)[C@]13[C@@H]2O`
1.18

Reference for the values: patent US9725460B2
